Reference source: ChEMBL document CHEMBL4296182

- Test system: Staphylococcus aureus
- Protocol: Antibacterial activity against Staphylococcus aureus MRSA ATCC 43300 (CO-ADD:GP_020); MIC in CAMBH media using NBS plates, by Resazurin F(560/590)
- Format: functional
- Study conditions: Concentration 20 uM, ASSAY_TEST Inhibition of Bacterial Growth, detection method Resazurin, Fluorescence (ex560/em590), MEDIA CAMHB, plate type 384well, CORNING #3640, time 18 hr
Inhibition by entry:
Provide the reading as a plain figure in %.

Would you please look over these solved cases?
Compound | Unit descriptor | Inhibition
COc1cc(/N=N/c2ccccc2C(=O)O)ccc1O | % | 46.16
Cc1c(COC(=O)NC(C)C)c(COC(=O)NC(C)C)c2n1CS(=O)(=O)C2 | % | 22.95
O=S(=O)(Oc1ccc(Cl)cc1)c1cccc2cccnc12 | % | 11.37

Which Inhibition value is on record for "O=C1C(Br)=Cc2cccc3cccc1c23" ?
13.47

What does the data say about its Inhibition? Entry: "O=C(O)/C=C/C(=O)N1Cc2cc3ccccc3nc2C1"
3.21

Any idea what Inhibition was measured for "O=c1cc(-c2ccccc2)[nH]c2cc(-c3ccco3)nn12" ?
0.84

Fill in: Inhibition of "CCOC(=O)Cc1cc(O)c2cc(C)ccc2n1" is ___
11.68

----------
- System: Cryptococcus neoformans
- Study conditions: Concentration 20 uM; ASSAY_TEST Inhibition of Fungal Growth; detection method Resazurin; Absorption (OD600-OD570); plate type 384well; NBS; CORNING #3640
- Description: Antifungal activity against Cryptococcus neoformans H99 ATCC 208821 (CO-ADD:FG_002); MIC in YNB media using NBS plates, by Resazurin OD(600-570)
Measured potencies and affinities stand elsewhere.
Measured Inhibition values are reported for all entries that follow.
Number in %, nothing else.

Compound | Assay system | Inhibition, %
COC(=O)c1cc(C)nc2c(C)cc3[nH]c4ccccc4c3c12 | Cryptococcus neoformans | 0.02
O=C(Nc1cccnc1)c1cccc([N+](=O)[O-])c1 | Cryptococcus neoformans | -5.39
C=C1CC2(OC1=O)c1ccccc1CCc1ccccc12 | Cryptococcus neoformans | -9.88
COc1cc2c(=O)n3c4c(cccc4c2cc1OC)CC3 | Cryptococcus neoformans | -14.32
CC(=O)NCCCOc1ccc([N+](=O)[O-])cc1Cl | Cryptococcus neoformans | -4.3
CC12CCC(/C(=N/c3ccc(/N=C4\C(=O)C5(C)CCC4C5(C)C)cc3)C1=O)C2(C)C | Cryptococcus neoformans | -4.9
CCOCc1cc(O)nc(SC)n1 | Cryptococcus neoformans | -4.91
O=C(O)c1ccccc1C(=O)Nc1ccccc1[N+](=O)[O-] | Cryptococcus neoformans | -12.04

Find the recorded Inhibition belonging to "Cc1ccc(NC(=S)NC(=O)c2ccccc2)cc1NC(=S)NC(=O)c1ccccc1" and report it.
1.39

Can you look up the measured Inhibition of "CCCCN1CCN=C1S" for me?
-2.57

Look up Inhibition: "CCCCCc1cc(O)nc(S)n1"
-4.11

Name the reported Inhibition value associated with the compound "Cc1ccc(Nc2nnc(S)s2)cc1F"
17.67

Inhibition lookup needed for "COC(=O)Cc1[nH]c(O)nc1C(=O)OC" , thanks.
-7.96

Recorded Inhibition for "Clc1cc2c(c(CSc3nc4ccccc4n4cccc34)c1)OCOC2" , please?
2.56

----------
- System: Klebsiella pneumoniae
- Study conditions: Concentration 20 uM; ASSAY_TEST Inhibition of Bacterial Growth; detection method Absorption (OD600); MEDIA CAMHB; plate type 384well; NBS; CORNING #3640; time 18 hr
- Description: Antibacterial activity against Klebsiella pneumoniae MDR ATCC 70063 (CO-ADD:GN_003); MIC in CAMBH media using NBS plates, by OD(600)
Measured potencies and affinities stand elsewhere.
Could you mark each record 1 if its Inhibition falls strictly under 10%, and 0 if it equals or exceeds it?

# check: Inhibition < 10% for "Cc1nc2ccc(N)nc2nc1C"
0

Lab log: compare recorded Inhibition with 10%; is it strictly lower for "CCCCSc1cc(O)nc(N)n1" ?
0

Item "Nc1o[nH]c(=O)c1C1CCCCC1" : Inhibition beneath 10%, strictly?
0

API: query returns whether the compound falls strictly under 10% in Inhibition. Query: "CN1CCN(C(=O)/C=C/c2ccc([N+](=O)[O-])o2)CC1"
1

Input "CCn1c2ccccc2c2cc(NC(=O)Nc3ccc([N+](=O)[O-])cc3C)ccc21" ; condition: Inhibition strictly below 10%. Does it hold?
1

Record "Cc1ccc2nc(Cl)cc(=O)n2c1" : is its Inhibition strictly below 10%?
1

In the record for "S=C(SCc1cc(Cl)cc2c1OCOC2)N1CCSCC1" , is Inhibition less than 10%?
0

----------
- Tested on: Candida albicans
- Study conditions: 20 µM
- Description: Antifungal activity against Candida albicans ATCC 90028 (CO-ADD:FG_001); MIC in YNB media using NBS plates, by OD630
Potency and affinity values are given separately.
Attribute measured: Inhibition (%)
Use % as the unit, but write only the number.

Smiles entry | Unit descriptor | Inhibition
O=C(Nc1ccc(Cl)c(Cl)c1)c1ccc(Cl)c(Cl)c1 | % | -2.44
NC(=O)c1ccccc1NC(=O)c1ccccc1Cl | % | 2.67
CC(=O)CC(=O)Nc1ccc2ccccc2c1 | % | 7.43
Cc1nc2ccccc2c(N)c1-c1cc(C)c2c(C)nc3ccccc3c2n1 | % | 2.89
CCOc1ccc(NC(=O)Nc2cc(C(C)C)ccc2C)cc1 | % | 0.78
CCc1cccc2[nH]c3cc([N+](=O)[O-])ccc3c12 | % | 9.1
COc1cc(O)c(C(=O)/C=C/c2ccccc2)c(OC)c1 | % | 6.59

Next item in the queue.
// query Inhibition value for entry "COC(=O)Cc1[nH]c(S)nc1C(=O)OC"
1.43

----------
- Test system: Acinetobacter baumannii
- Protocol: Antibacterial activity against Acinetobacter baumannii ATCC 19606 (CO-ADD:GN_034); MIC in CAMBH media using NBS plates, by Resazurin F(560/590)
- Format: functional
- Study conditions: Concentration 20 uM, ASSAY_TEST Inhibition of Bacterial Growth, detection method Resazurin, Fluorescence (ex560/em590), MEDIA CAMHB, plate type 384well, CORNING #3640, time 18 hr
Attribute measured: Inhibition (%)
# value in %; strip the unit string

Recorded results for 5 compounds are shown here.
Compound | Inhibition, %
NNC(=O)CNC(=O)Nc1nnc(S)s1 | 15.79
CCOC(=O)Nc1ccc(C(=O)/C=C/c2ccccc2)cc1 | 3.76
NCC(=O)Nc1ccc(Cl)cc1C(=O)c1ccc[nH]1 | -14.48
O=C(Nc1ccc(O)c(C(=O)O)c1)Oc1ccccc1 | 12.9
CCOC(=O)c1cc(-c2cccnc2)nc2c(Cl)cc(Cl)cc12 | -10.84

What value of Inhibition has been recorded for this entry: C=CCNC(=O)C1COc2ccccc2O1 (stereo not drawn)
-14.67

Name the reported Inhibition value associated with the compound "NC(=O)c1ccc(Oc2ccc(C(N)=O)cc2)cc1"
9.37

----------
- Test system: Escherichia coli
- Protocol: Antibacterial activity against Escherichia coli ATCC 25922 (CO-ADD:GN_001); MIC in CAMBH media using NBS plates, by Resazurin F(560/590)
- Type: functional
- Study conditions: Concentration 20 uM, ASSAY_TEST Inhibition of Bacterial Growth, detection method Resazurin, Fluorescence (ex560/em590), MEDIA CAMHB, plate type 384well, CORNING #3640, time 18 hr
Attribute measured: Inhibition (%)
Supply the numeric figure in %, leaving out any unit text.

Some entries whose results are on file:
Compound | Unit descriptor | Inhibition
Cn1ncc2c(O)nc(N)nc21 | % | 12.24
C(=C\CSc1ccccn1)/CSc1ccccn1 | % | 9.4
O=C(Nc1cccc(Cl)c1)Nn1cnnc1 | % | 2.61
c1ccc(-c2nnc3oc(-c4cccs4)nn23)cc1 | % | 4.88
O=C1OC(Cc2ccccc2)C(c2ccccc2)C1=O (configuration not stated) | % | 6.23
Cn1c(SCc2ccccn2)nc2c1c(=O)[nH]c(=O)n2C | % | 13.96

Lab note: next compound to report on.
What value of measured Inhibition is listed for "CN(C)S(=O)(=O)c1ccccc1N=C=S" ?
10.9

----------
- System: Candida albicans
- Study conditions: 20 µM
Entries with a potency or affinity are not part of this list.
Inhibition by entry:
Give a bare numeral; the unit % is implied.

The following compounds have reported results that may help.
Compound | Inhibition / %
CC(C)=C(c1ccc(Cl)cc1)c1c(N)ncnc1N | -0.84
O=C(Nc1cccc(Cl)c1)Nn1cnnc1 | 3.98
O=C(c1ccccc1)c1ccc(-c2ccc(O)cc2)cc1 | 6.54
O=C(Cn1nnc(N2CCCCC2)n1)N/N=C/c1ccccc1O | -0.19
Cc1nnc(-n2cccc2)s1 | 2.45
COc1cc(C2NC(=O)C(C#N)=C(Nc3cccc(C)c3)S2)ccc1O (stereo not given) | 1.94
O=c1cc(-c2ccccc2)[nH]c2cc(-c3ccco3)nn12 | -0.13
Cc1nc2ccccc2nc1N1CCCC1 | 2.02

Quick one: Inhibition of "CN(C)c1ccc(/C=C/c2ccc3ccccc3n2)cc1" ?
5.63

Can you share its Inhibition? I mean this compound: O=c1ccn2c(n1)SC(c1ccccc1)C2 (stereo not given)
4.6

Form field: reported Inhibition of "NS(=O)(=O)c1ccc(Nc2ccccc2)c([N+](=O)[O-])c1"
7.16

Quick one: Inhibition of "O=C(Cn1ccc(=O)[nH]c1=O)Nc1nccs1" ?
0.84

// Inhibition lookup, key: "Cc1ccc(NC(=O)Nc2ccccc2C(N)=O)cc1"
1.66

Need Inhibition of "C#CCSc1nc(-c2ccco2)n[nH]1" , thanks.
3.4

Suppose we examine the compound "O=[N+]([O-])c1ccc(-c2ncc(-c3ccc(Br)cc3)o2)cc1" ; what Inhibition value has been reported?
5.85

What does the record list as Inhibition for CCCCC[C@H](O)/C=C/[C@@H]1[C@@H](C/C=C\CCCC(=O)O)[C@@H](O)C[C@H]1O.NC(CO)(CO)CO [DINOPROST TROMETHAMINE] ?
-0.17

Returns the measured Inhibition for the input compound. Input: "COc1cc(NC(C)=O)c2ncccc2c1NC(C)=O"
5.47
